testTarget: Transient receptor potential cation channel subfamily A member 1 (Homo sapiens, UniProt O75762)
Sequence (O75762 whole entry): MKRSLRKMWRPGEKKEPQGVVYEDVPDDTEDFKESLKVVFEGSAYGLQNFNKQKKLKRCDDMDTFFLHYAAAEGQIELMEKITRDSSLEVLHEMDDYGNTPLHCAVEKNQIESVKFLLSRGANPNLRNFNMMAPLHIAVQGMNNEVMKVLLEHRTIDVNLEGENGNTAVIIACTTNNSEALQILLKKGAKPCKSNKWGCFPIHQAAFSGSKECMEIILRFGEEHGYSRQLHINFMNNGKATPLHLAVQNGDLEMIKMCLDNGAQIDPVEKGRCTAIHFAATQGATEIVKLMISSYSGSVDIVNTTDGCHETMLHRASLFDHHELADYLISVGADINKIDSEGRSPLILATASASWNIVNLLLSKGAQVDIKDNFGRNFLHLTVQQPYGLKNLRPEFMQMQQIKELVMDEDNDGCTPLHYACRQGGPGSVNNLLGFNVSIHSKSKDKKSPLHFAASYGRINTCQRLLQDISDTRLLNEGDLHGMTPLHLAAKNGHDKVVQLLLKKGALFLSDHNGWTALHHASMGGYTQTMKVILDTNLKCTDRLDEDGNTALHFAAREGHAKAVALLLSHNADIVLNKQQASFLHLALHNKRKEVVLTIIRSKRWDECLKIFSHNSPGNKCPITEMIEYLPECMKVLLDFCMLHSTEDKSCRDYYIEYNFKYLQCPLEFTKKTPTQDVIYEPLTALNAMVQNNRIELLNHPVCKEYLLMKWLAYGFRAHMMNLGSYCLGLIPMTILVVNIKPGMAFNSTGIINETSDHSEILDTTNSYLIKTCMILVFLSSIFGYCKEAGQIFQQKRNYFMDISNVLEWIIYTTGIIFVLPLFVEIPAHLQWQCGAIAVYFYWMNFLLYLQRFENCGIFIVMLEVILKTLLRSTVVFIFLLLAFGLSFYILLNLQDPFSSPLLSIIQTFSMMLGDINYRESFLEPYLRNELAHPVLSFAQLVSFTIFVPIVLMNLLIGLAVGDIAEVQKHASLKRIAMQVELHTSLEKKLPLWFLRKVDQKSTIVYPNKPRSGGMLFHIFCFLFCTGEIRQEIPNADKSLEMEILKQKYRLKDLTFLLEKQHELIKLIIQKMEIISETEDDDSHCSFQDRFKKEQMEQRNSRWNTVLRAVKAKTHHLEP
Note to self: use Fulfilled only for IC50 readings below 400 nM; a reading exactly at 400 nM still gets Not fulfilled.

Q. IC50 strictly < 400 nM for this molecule? O=C(CN(Cc1ccccc1)S(=O)(=O)c1cc2cc(F)ccc2o1)NCc1cc(-c2ccc(C(F)(F)F)cn2)ccn1
A. Not fulfilled

Q. Is the reported IC50 for O=C(NCc1cc(-c2ccc(C(F)(F)F)cc2)ncn1)[C@@H]1CCCN1S(=O)(=O)c1cc2ccncc2o1 strictly below 400 nM?
A. Fulfilled

Q. Strictly below 400 nM in IC50? O=C(NCc1ccnc(-c2ccc(COCC(F)(F)F)nc2)c1)[C@@H]1CCCN1S(=O)(=O)c1cc2ccccc2o1
A. Fulfilled

Q. Lab note: IC50 threshold 400 nM. Does this molecule come in strictly under it? O=C(CN(Cc1ncco1)S(=O)(=O)c1cc2cc(F)ccc2o1)NCc1cc(-c2ccc(C(F)(F)F)cn2)ccn1
A. Not fulfilled

Q. Quick check: does O=C(CN(Cc1ncco1)S(=O)(=O)c1cc2cc(F)ccc2o1)NCc1cc(-c2ccc(C(F)(F)F)cc2)ncn1 have IC50 under 400 nM?
A. Fulfilled

----------
testTarget: Transient receptor potential cation channel subfamily A member 1 (Homo sapiens, UniProt O75762)
observationType: IC50

Form: compound = O=C(NCc1cccc(OCc2ccc(N3CCOCC3)nc2)c1)[C@@H]1CCCN1S(=O)(=O)c1cc2cc(F)ccc2o1 [US10626112, Example 22] ; IC50 = 110 nM

# IC50 (compound: O=C(CN(Cc1ccccc1)S(=O)(=O)c1cc2cc(F)ccc2o1)NCc1cc(-c2ccc(C(F)(F)F)cc2)ncn1 [US10626112, Example 352] ) is 410 nM

The value of IC50 measured for the compound O=C(CN(CC1CCNC1)S(=O)(=O)c1cc2cc(F)ccc2o1)NCc1cc(-c2ccc(C(F)(F)F)cc2)ncn1 (stereo not drawn) [US10626112, Example 425] turned out to be 190 nM

For record CC(C)OCCN(CC(=O)NCc1cc(-c2ccc(C(F)(F)F)cc2)ncn1)S(=O)(=O)c1cc2cc(F)ccc2o1 [US10626112, Example 358] the listed IC50 is 110 nM

Reported IC50 for CC(C)OCCN(CC(=O)NCc1cc(-c2ccc(C(F)(F)F)cn2)ccn1)S(=O)(=O)c1cc2cc(F)ccc2o1 [US10626112, Example 356] was 190 nM

# IC50 of COCCN(CC(=O)NCc1cc(-c2ccc(C(F)(F)F)cn2)ccn1)S(=O)(=O)c1cc2cc(F)ccc2o1 [US10626112, Example 355] = 100 nM

Lab note: measured IC50 of O=C(NCc1cccc(CSc2ccc(C(F)(F)F)cc2)c1)[C@@H]1CCCN1S(=O)(=O)c1cc2ccccc2o1 [US10626112, Example 299] was 24 nM

Notebook: O=C(CN(Cc1cnccn1)S(=O)(=O)c1cc2cc(F)ccc2o1)NCc1cc(-c2ccc(C(F)(F)F)cc2)ncn1 [US10626112, Example 361] , IC50 read as 470 nM
